Test system: OVCAR-8 ovarian
Assay: NCI-60 one-dose screen, 48 h
Details: 10 µM unless noted
The panel holds about 83,000 compounds, 20% with a hit somewhere; the sample as a whole holds those more often. Active and inactive are the calls of the source. How the source made its calls: active means growth percent below 10; inactive means the rest.
Possible outcomes: T (active), F (inactive)

compound	test target	class
COc1ccc(/C=C/C(=O)c2cc3c(N)c(C(=O)Nc4cccc(Cl)c4C)sc3nc2C)cc1	OVCAR-8 ovarian	T
NC(=O)c1c(NC(=O)c2cccc(C(F)(F)F)c2)sc2c1CCC(=O)C2	OVCAR-8 ovarian	F
N#Cc1c(-c2ccccc2)nc(SCc2nnc(-c3ccc(Cl)cc3)o2)[nH]c1=O	OVCAR-8 ovarian	F
CCNc1ccc(-c2nc3ccccc3n3cccc23)cc1	OVCAR-8 ovarian	F
O=C(/C=C/c1cccc(Cl)c1Cl)Nc1ncc(Cc2ccccc2Cl)s1	OVCAR-8 ovarian	F
O=C1/C(=C/c2ccccn2)NC(=S)N1c1ccccc1Cl	OVCAR-8 ovarian	F
O=C1c2ccccc2C(=O)c2c1c(C(=O)NCc1ccccc1)c1ccccn21	OVCAR-8 ovarian	F
Nc1ncnc2c1N=C(c1ccc3c(c1)OCO3)CC(c1cccc(Nc3ccnc4cc(C(F)(F)F)ccc34)c1)N2 (configuration not stated)	OVCAR-8 ovarian	F
COc1cc(C2C(C(=O)OCc3ccccc3)=C(C)NC(C)=C2C(=O)OCc2ccccc2)cc(OC)c1OC	OVCAR-8 ovarian	F
COc1cccc(CNc2c3ccccc3nc3ccccc23)c1	OVCAR-8 ovarian	F
CCOC(=O)c1cc(C(=O)c2cc(OC)c(OC)c(OC)c2)n2ccccc12	OVCAR-8 ovarian	F
O=c1nc(-c2ccccc2)c2cc(-c3ccc(C(F)(F)F)nc3)ccc2[nH]1	OVCAR-8 ovarian	F
COc1cc(OC)c(/C=C/C(=O)c2c(O)cc(OC)c(C3CCN(C)CC3)c2OC)c(OC)c1	OVCAR-8 ovarian	T
Cc1ccc(C)c(/C=C2\CN(C(=O)OC(C)(C)C)C/C(=C\c3cc(C)ccc3C)C2=O)c1	OVCAR-8 ovarian	F
O=C(/C=C(O)/C=C/c1cccc2[nH]ccc12)/C=C/c1cccc2[nH]ccc12	OVCAR-8 ovarian	F
Cn1ccc(=O)nc1	OVCAR-8 ovarian	F
CCN(CC)CCN1C(=O)c2c(c(C)c3c(oc4ccc(OC)cc43)c2C)C1=O	OVCAR-8 ovarian	F
OCCNCCNC(Cc1ccc(Cl)cc1)c1ccccc1 (configuration not stated)	OVCAR-8 ovarian	F
O=C1C(Nc2ccccn2)=C(I)C(=O)c2ncccc21	OVCAR-8 ovarian	T
CNC(=O)c1cc(Oc2cccc3nc(NC(=O)Nc4cc(C(F)(F)F)ccc4Cl)ccc23)ccn1	OVCAR-8 ovarian	F
CC(C)(C)n1cc(-c2ccnc(NCCCNS(=O)(=O)c3ccc(C(F)(F)F)cc3)c2)c(-c2cccc(F)c2)n1	OVCAR-8 ovarian	F
CCOC(=O)c1c(C)c2c(n1Cc1ccccc1)CSCC2=O	OVCAR-8 ovarian	F
